Target Or Test System: T1, human amylin receptor (amylin 3(a) receptor: human calcitonin receptor plus RAMP-3) (human, UniProt P30988 25-474; O60896 24-148, limits assumed)
T1 sequence (looked up) 1: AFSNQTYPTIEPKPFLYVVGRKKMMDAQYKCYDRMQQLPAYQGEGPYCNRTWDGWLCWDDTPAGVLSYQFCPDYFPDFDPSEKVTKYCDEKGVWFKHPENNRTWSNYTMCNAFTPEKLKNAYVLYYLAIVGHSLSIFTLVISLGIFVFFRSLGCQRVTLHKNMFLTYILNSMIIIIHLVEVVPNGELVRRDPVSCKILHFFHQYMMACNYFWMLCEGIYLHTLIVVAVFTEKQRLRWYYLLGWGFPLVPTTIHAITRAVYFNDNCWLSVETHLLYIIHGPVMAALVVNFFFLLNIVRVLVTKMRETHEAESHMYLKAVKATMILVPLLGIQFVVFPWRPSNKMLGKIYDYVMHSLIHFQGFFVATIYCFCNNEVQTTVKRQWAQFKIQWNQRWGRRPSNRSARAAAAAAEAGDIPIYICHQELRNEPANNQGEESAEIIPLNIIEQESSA
T1 sequence (looked up) 2: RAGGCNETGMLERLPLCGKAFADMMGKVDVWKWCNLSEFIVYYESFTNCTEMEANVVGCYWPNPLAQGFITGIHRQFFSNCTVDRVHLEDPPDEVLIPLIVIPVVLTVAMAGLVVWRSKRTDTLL
Protocol Description: cell-based or functional assay
Readout Kind: hAmylin-R funct. EC50 (nM)
Write down the numeric answer in nM and omit the unit.

Binder: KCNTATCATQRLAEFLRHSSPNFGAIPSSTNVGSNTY (C20 diacid-gGlu on the alpha amino group of the N-terminal residue; Cys2-Cys7 disulfide and C-terminal amide as in human amylin, also called compound 9) [N^α1-[(4S)-4-carboxy-4-(19-carboxynonadecanoylamino)butanoyl]-[Glu14,Arg17,Pro21,Pro27]-h-amylin]
hAmylin-R funct. EC50 [nM]: 0.175

Binder: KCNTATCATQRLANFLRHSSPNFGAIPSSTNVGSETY (C20 diacid-gGlu on the alpha amino group of the N-terminal residue; Cys2-Cys7 disulfide and C-terminal amide as in human amylin, also called compound 23) [N^α1-[(4S)-4-carboxy-4-(19-carboxynonadecanoylamino)butanoyl]-[Arg17,Pro21,Pro27,Glu35]-h-amylin]
hAmylin-R funct. EC50 [nM]: 0.34

Binder: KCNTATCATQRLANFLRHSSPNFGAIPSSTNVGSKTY (C20 diacid-gGlu on the alpha amino group of the N-terminal residue; Cys2-Cys7 disulfide and C-terminal amide as in human amylin, also called compound 34) [N^α1-[(4S)-4-carboxy-4-(19-carboxynonadecanoylamino)butanoyl]-[Arg17,Pro21,Pro27,Lys35]-h-amylin]
hAmylin-R funct. EC50 [nM]: 0.313

Would you kindly look at the next entry?
Q. Please list hAmylin-R funct. EC50 recorded for the binder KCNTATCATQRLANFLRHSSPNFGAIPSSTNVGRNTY (C20 diacid-gGlu on the alpha amino group of the N-terminal residue; Cys2-Cys7 disulfide and C-terminal amide as in human amylin, also called compound 39) [N^α1-[(4S)-4-carboxy-4-(19-carboxynonadecanoylamino)butanoyl]-[Arg17,Pro21,Pro27,Arg34]-h-amylin]
A. 0.217

The origin of these recorded values is patent US20140087995A1.
